- Measurement Notes: DAX1 (NR0B1) inhibitors on StAR promoter, primary screen, cell-based, luminescence, SF-1 (NR5A1), full-length DAX-1 (AID 652010);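 also: 0% = DAX-1 cells with DMSO and 100% = cells lacking DAX-1 with DMSO; higher inhibition means more luminescence from relief of DAX-1 repression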
- Experimental Conditions: HEK293T StAR-luciferase reporter, SF-1/DAX-1 repression relief; at 6.8 µM
Out of some 370,000 compounds screened, about 4,100 (1.1%) were called active.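 The calls were made as follows: active = inhibition above the mean over all tested compounds plus 3 SD (cut at about 3.6% in these data); inactive = the rest.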 The full list was thinned out, with actives kept by preference.
One label from this list, please: class 1 for active, class 0 for inactive

Known results for molecules:
{"Molecule": "CC(C)(C)OC(=O)NCCc1ccccc1/C=C/S(=O)(=O)NCc1ccc(F)cc1", "Group Label": "class 0"}
{"Molecule": "Cc1ccc(/C=N/NC(=O)COc2ccccc2-c2ccccc2)cc1", "Group Label": "class 1"}
{"Molecule": "C=CCN1[C@@H](Cc2ccccc2)COc2cccc(N3CCSCC3)c2S1(=O)=O", "Group Label": "class 0"}
{"Molecule": "O=C1c2ccccc2C(c2nc3ccccc3[nH]2)N1c1ccccc1 (stereo not drawn)", "Group Label": "class 0"}
{"Molecule": "S=C(Nc1ccc(Cl)cc1Cl)N1CCCC1", "Group Label": "class 0"}

// query Outcome? COc1cccc(/C=C/C(=O)Nc2ccc3c(c2)OCCO3)c1
// result class 1

// query Outcome? CC(CCN1CCC(C(O)(c2ccccc2)c2ccccc2)CC1)Oc1ccc([N+](=O)[O-])cc1Cl (stereo not drawn)
// result class 0

// query Outcome? Nc1ncnc2c1ncn2C1OC(CO)CC1O (stereo not drawn)
// result class 0

====

Overview of reported inhibition across a group of compounds:
- Measurement Notes: DAX1 (NR0B1) inhibitors on StAR promoter, primary screen, cell-based, luminescence, SF-1 (NR5A1), full-length DAX-1 (AID 652010)
- Experimental Conditions: HEK293T StAR-luciferase reporter, SF-1/DAX-1 repression relief; at 6.8 µM; active compounds read high
Out of some 370,000 compounds screened, about 4,100 (1.1%) were called active. The entries come from a sample that favours actives as a whole.
Numeric answer only, unit % assumed.

// query # input compound: CCOc1cc(/C=N/O)ccc1OCc1ccccc1F ; wanted: its inhibition
// result 0.47

// query # input compound: O=C(NCCc1ccc(F)cc1)c1ccc(S(=O)(=O)N2CCCCC2)cc1 ; wanted: its inhibition
// result -1.79

// query # input compound: CC1CN/C(=C\C(=O)c2ccc(Br)cc2)C(=O)N1 (stereo not drawn) ; wanted: its inhibition
// result 4.26

// query # input compound: Cc1cc(NC(=O)Nc2ccccc2[N+](=O)[O-])no1 ; wanted: its inhibition
// result -0.12

// query # input compound: CCOC(=O)c1c(S(=O)(=O)Nc2cccc(Cl)c2)c(C)n(C)c1C ; wanted: its inhibition
// result 1.63

// query # input compound: Cc1ccc(-c2nc(C3CCCN(S(=O)(=O)c4ccc(Br)s4)C3)no2)cc1 (stereo not drawn) ; wanted: its inhibition
// result 0.62

====

- Measurement Notes: DAX1 (NR0B1) inhibitors on StAR promoter, primary screen, cell-based, luminescence, SF-1 (NR5A1), full-length DAX-1 (AID 652010)
- Experimental Conditions: HEK293T StAR-luciferase reporter, SF-1/DAX-1 repression relief; at 6.8 µM
Screen size: about 370,000 compounds; about 4,100 (1.1%) were called active.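 How the source made its calls: active means inhibition above the mean over all tested compounds plus 3 SD (cut at about 3.6% in these data); inactive means the rest.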 What follows is part of a selection rich in actives, with near analogues and random picks from the rest.
One label from this list, please: 1 (active), 0 (inactive)

Known results for molecules:
{"Molecule": "O=C(CSc1nnnn1C1CCCC1)Nc1ccc2c(c1)OCCO2", "Group Label": 0}
{"Molecule": "COc1ccc(/C=C/C(=O)OCC(=O)N2CCN(S(=O)(=O)c3ccc(C)cc3C)CC2)cc1OC", "Group Label": 0}
{"Molecule": "O=C(CCCCCN1C(=O)C2C3C=CC(C3)C2C1=O)Nc1ccccn1 (configuration not stated)", "Group Label": 0}
{"Molecule": "Cc1ccccc1N1CCN(CC(=O)NCc2ccc(Cl)cc2)CC1", "Group Label": 0}
{"Molecule": "COc1ccccc1CCC(=O)OCC(=O)N1CCN(S(=O)(=O)c2ccc(C)cc2C)CC1", "Group Label": 1}
{"Molecule": "Cc1cccc(C(=O)Nc2nnc(Cc3c[nH]c4ccccc34)s2)c1", "Group Label": 0}
{"Molecule": "COc1cc(C(C)=O)ccc1OC(=O)CN1C(=O)c2ccccc2C1=O", "Group Label": 0}
{"Molecule": "C=CCN(CC=C)C(=O)CN1C(=O)c2ccccc2C1=O", "Group Label": 0}

// query Outcome? N#Cc1ccc(CSc2nnc3ccccn23)cc1
// result 0

// query Outcome? Cc1ccc(C(=O)N(Cc2ccccn2)CC2CCCO2)cc1 (configuration not stated)
// result 0

// query Outcome? COc1ccc(C(=O)N2CCCN(C)CC2)c(OC)c1
// result 0

// query Outcome? O=C(COC(=O)c1cc(=O)[nH]c2ccccc12)NCc1cccc(Cl)c1
// result 0

// query Outcome? Cc1nnc(NC(=O)c2ccc3nccnc3c2)s1
// result 1

// query Outcome? COC(=O)c1c(-c2ccc(OC)cc2)c2c(c3c4cc(OC)ccc4n(S(=O)(=O)c4ccc(F)cc4)c13)C(=O)N(C)C2
// result 0

// query Outcome? NS(=O)(=O)c1ccc(CCNC(=O)c2ccc(Cl)cc2[N+](=O)[O-])cc1
// result 0

// query Outcome? Cn1cc([N+](=O)[O-])c(C(=O)Nc2ccc3c(c2)OCCO3)n1
// result 0

// query Outcome? Cc1ccc(NC(=S)NNC(=O)CSc2nnc(SCc3ccccc3Cl)s2)cc1
// result 0

// query Outcome? Cc1ccc(S(=O)(=O)N2CCN(C(=O)COC(=O)CNC(=O)c3ccc(C(C)(C)C)cc3)CC2)c(C)c1
// result 0

// query Outcome? CC(C)CCC(C)NC(=O)c1ccc2nccnc2c1 (configuration not stated)
// result 0

// query Outcome? CCc1ccc(NC2Nc3cc(C)nn3S2)cc1 (configuration not stated)
// result 1

// query Outcome? CC1CCCN(CC(O)COc2ccc3c(c2)OCO3)C1 (configuration not stated)
// result 0

// query Outcome? Cn1ccnc1SCC(=O)Nc1ccc2c(c1)OCCO2
// result 1

====

- Measurement Notes: DAX1 (NR0B1) inhibitors on StAR promoter, primary screen, cell-based, luminescence, SF-1 (NR5A1), full-length DAX-1 (AID 652010);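 also: 0% = DAX-1 cells with DMSO and 100% = cells lacking DAX-1 with DMSO; higher inhibition means more luminescence from relief of DAX-1 repression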
- Experimental Conditions: HEK293T StAR-luciferase reporter, SF-1/DAX-1 repression relief; at 6.8 µM
Among all 370,000 compounds or so, about 4,100 (1.1%) were called active.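 The calls were made as follows: active = inhibition above the mean over all tested compounds plus 3 SD (cut at about 3.6% in these data); inactive = the rest.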 The full list was thinned out, with actives kept by preference.
One label from this list, please: yes (1) for active, no (0) for inactive

Known results for compounds:
{"Compound": "Cc1ccc(NNC(=O)C2CCC2)cc1C", "Group Label": "no (0)"}
{"Compound": "COC(=O)C1CN(CCc2ccccc2)CCS(=O)(=O)N1Cc1cccc(Cl)c1 (stereo unspecified)", "Group Label": "no (0)"}
{"Compound": "CC(=O)C1=C(C)N(Cc2ccc(Cl)cc2)C(=S)NC1c1ccc(F)cc1 (stereo unspecified)", "Group Label": "no (0)"}

// query Outcome? O=C(Nc1ccc(-c2nnc(-c3ccccc3)o2)cc1)C1CCCO1 (stereo unspecified)
// result yes (1)

// query Outcome? CN1OC[C@@H]2CN(C(=O)c3ccc(-c4ccccc4)cc3)[C@H](c3ccc(-c4cccc(F)c4)cc3)C[C@@H]21
// result no (0)

// query Outcome? C=CCn1c(SCC(N)=O)nnc1-c1ccccc1OC
// result no (0)

====

- Measurement Notes: DAX1 (NR0B1) inhibitors on StAR promoter, primary screen, cell-based, luminescence, SF-1 (NR5A1), full-length DAX-1 (AID 652010);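 also: 0% = DAX-1 cells with DMSO and 100% = cells lacking DAX-1 with DMSO; higher inhibition means more luminescence from relief of DAX-1 repression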
- Experimental Conditions: HEK293T StAR-luciferase reporter, SF-1/DAX-1 repression relief; at 6.8 µM; active compounds read high
In all, about 370,000 compounds went through this assay and about 4,100 (1.1%) were called active. The full list was thinned out, with actives kept by preference.
Parameter: inhibition (%)
Numeric answer only, unit % assumed.

{"Compound": "O=C(Nc1ccccc1)c1ccccc1Br", "Unit String": "%", "Value": 4.1}
{"Compound": "O=C(Nc1ccccc1)N1CCN(Cc2nc3ccccc3c(=O)[nH]2)CC1", "Unit String": "%", "Value": -0.16}

// query # input compound: NNc1cccc(C=Cc2ccccc2)cc1=O ; wanted: its inhibition
// result 4.11

// query # input compound: CN(C)C1CN(Cc2cn(Cc3ccccc3)nn2)S(=O)(=O)C1 (stereo unspecified) ; wanted: its inhibition
// result 1.66

====

- Measurement Notes: DAX1 (NR0B1) inhibitors on StAR promoter, primary screen, cell-based, luminescence, SF-1 (NR5A1), full-length DAX-1 (AID 652010);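 also: 0% = DAX-1 cells with DMSO and 100% = cells lacking DAX-1 with DMSO; higher inhibition means more luminescence from relief of DAX-1 repression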
- Experimental Conditions: HEK293T StAR-luciferase reporter, SF-1/DAX-1 repression relief; at 6.8 µM
The whole screen tested about 370,000 compounds, of which about 4,100 (1.1%) were called active.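 Rule for the calls: active = inhibition above the mean over all tested compounds plus 3 SD (cut at about 3.6% in these data); inactive = the rest.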 The list comes from a sample in which actives are over-represented; it also holds close analogues and randomly drawn compounds.
One label from this list, please: y = active, n = inactive

Known results for compounds:
{"Compound": "O=C(NC1CCCC1)C1CSCCS(=O)(=O)N1Cc1ccccc1 (stereo not given)", "Group Label": "n"}
{"Compound": "CC(=O)c1cc(C#N)c(SCC(=O)Nc2nccs2)nc1C", "Group Label": "n"}
{"Compound": "O=S1(=O)c2ccc(N3CCN(Cc4ccccc4F)CC3)cc2Oc2ccccc2CN1Cc1cn(Cc2ccc(Cl)cc2)nn1", "Group Label": "n"}
{"Compound": "Cc1ccnc(NC(=O)C(C)N2C(=O)c3ccccc3C2=O)c1 (stereo not given)", "Group Label": "n"}
{"Compound": "COc1cccc(CNC(=O)C2CCCN(c3nc4ccccc4o3)C2)c1OC (stereo not given)", "Group Label": "n"}
{"Compound": "Cc1ccc(-c2nnc(SCC(=O)Nc3ccc(Oc4ccccc4)cc3)n2Cc2ccco2)cc1", "Group Label": "n"}

// query Outcome? NN=C(NN=Cc1ccccc1)c1ccccc1
// result n

// query Outcome? Cc1ccc(-n2c(SCC(=O)Nc3cccc4ccccc34)nnc2-c2ccccn2)cc1
// result n

// query Outcome? CC(=O)c1ccc(NC(=O)CCc2nnc3ccc(NCc4ccco4)nn23)cc1
// result y

// query Outcome? COC(=O)c1cc(S(=O)(=O)N2CCN(c3ccccc3C)CC2)cn1C
// result n

// query Outcome? COc1cc(SC)ccc1C(=O)Nc1cc(C)ccn1
// result y

// query Outcome? O=C(NCCc1ccccc1)c1c[nH]c2ccc(F)cc2c1=O
// result n

// query Outcome? O=C(CSc1cccc[n+]1[O-])c1ccc(-c2ccccc2)cc1
// result y

// query Outcome? CCCC[C@H]1C2CC(OC(=O)NCc3ccccc3)C(C2)[C@H]2CCCCN21 (stereo not given in full)
// result n

// query Outcome? O=C(NCCc1c[nH]c2ccccc12)c1cc2ccccc2oc1=O
// result y

// query Outcome? COCCCNC(=O)c1ccc(CNS(=O)(=O)c2ccc(NC(C)=O)cc2)cc1
// result n

// query Outcome? COC(=O)C12C=C3CC(c4ccccc4)=C3C(=O)N1Cc1[nH]c3ccccc3c1C2 (stereo not given)
// result n

// query Outcome? CC(=O)N1C[C@@H](CO)[C@@H](N(C)C(=O)C(C)(C)C)C[C@H]1c1ccccc1Br
// result n

// query Outcome? CCNC(=O)c1cccc(NC(=O)C2CC(=O)N(CCc3ccccc3)C2)c1 (stereo not given)
// result n

// query Outcome? Cc1cccc(C)c1NC(=O)c1ccc(CN2CCc3ccccc3C2)cc1
// result n

// query Outcome? COc1ccccc1CCNC(=O)C1CCN(c2nc(C)cc(C)n2)CC1
// result n

// query Outcome? COc1ccc(OCc2cc(C(=O)NCC3(C)COC3)no2)c(Cl)c1
// result n
